assay: yeast display, Sf9 membrane polyspecificity reagent, FACS + sequencing; frameworks hold sequencing errors
Experimental readout: polyreactivity (PSR sort gate)

>>> measured_value("QVQLVESGGGLVQAGGSLRLSCADSGLIFQYYVMVWYRQAQGKERELVAAISARGGGTYYADSVKGRFTISRDNAKNTVYLPMNSLKPEVTAVYYCAAHQVYAGPGYDYWGQGTQVTVSS")
"high polyreactivity"
>>> measured_value("QVQIEESGGGLVQAGGSLRLSCAASGFTFTYNDMGWNRQAPGKETEFVAAISSTGGSTYYADSVKGRFTISRDNAKNTVYLQMNSLKPEDTAVYYCAAEDSWYWDAWFDYWGQGTQVTVSS")
"low polyreactivity"
>>> measured_value("QVQLVESGGGLVQAGGSLRLSCAASGNIFYTYAMGWYRQAPGNERELVAGISSDASTTYADSVKGRFTISRDNAKNTVYLPMKSLNPEDTAVYYCPADITGIVWYVYYYWGQGTQVTVSS")
"low polyreactivity"
>>> measured_value("QVQLVESGGGLVQAGGSLRLSCAASGFTFNSYAMGWYRQAPGKEREFVAAISRSGSNTNYADSVKGRFTISRDNAKNTVYLEMNSLKPEDTAVYYCAARVSSVTRSGFGYWGEGTQVTVSS")
"high polyreactivity"

# context switch: different sequence, same polyreactivity (PSR sort gate)
Lab book: polyreactivity (PSR sort gate) of QVQLVESGGGLVQAGGSLRLSCAASGFIFRRYAMGSYRQAPGKERELVAAISGSGGRTYYADSVKGRFTISRDNAKNTVYLQMNSLKPEDTAVYYCAADHGSLLYDYWGQGTQVTVSS noted as high polyreactivity

* * *

assay: yeast display, Sf9 membrane polyspecificity reagent, FACS + sequencing; frameworks hold sequencing errors
Experimental readout: polyreactivity (PSR sort gate)

>>> measured_value("QGQLVESGGGLGQAGGTLRLSCAASGFTFSFYAMGWYRQAPGKERELVAAISWSGGSTYYADSVKGRFTISRDNAKNTVYLQMNSLKPEDTAVYYCAAKLLYVGRYGYWGHGTQVTVSS")
"high polyreactivity"
>>> measured_value("QVQLVESGGGLVQAGGSLRLSCAASGRTFYAYTMGWYRQAPGKERELVAAISSSGGSTYYADSVKGRFTISRDNAKNTVYLQMNSLKPEDTAVYYCAAVWYFNRRVSGYYYWGQGTQVTVSS")
"high polyreactivity"
>>> measured_value("QVQLVESGGGLVQAGGSLRLSCAASGSIFVFYAMGWYRQAPGKERELVAAITRSGGRTYADSVKGRFTISRDNAKNTVYLQMYSLKPEDTAVYYCNAGTYWYNGRYTRSAHDYWGQGTQVTVSS")
"high polyreactivity"
>>> measured_value("QVQLVESGGGLVQAGGSLRLSCAASGLTFYTYAMGWYRQAPGKERELVAAISGGGRTHYADSVKGRFTISRDNAKNTVYLQMNSLKPEDTAVYYCAKDKGFLVRYDDLHDYDYWGQGTQVTVSS")
"low polyreactivity"
>>> measured_value("QVQLVESGGGLVQAGGSLRLSCAASGRIFPFNDMGWYREAPGKEREFVADISDNGGSTYADSVKGRFTISRDNAKNTVYLQMNSLKPEDTAVYYCNAVYTSYRGGYYYWGQGTQGTVSS")
"low polyreactivity"
>>> measured_value("QVQLVESGGGLVQAGGSLRLTCSASGSTFPSNSMGGYRQAPGKERELVAAITFRGGRTYYADSVKGRFTISRDNAKNTVYLQMNSLIPEDTAVYYCAAERWWYTVRGYGYWGQGTQVTVSS")
"high polyreactivity"
>>> measured_value("QVQLVESGGGLVQAGGSLRLSCAASGSIFAVYAMGRYRQAPGKERELVASISRTGTTNYADSVKGRFTISRDNAKNTVYLQMNSLKPEDTAVYYCNADAYLYYKYHWGFTFYQYEYWGQGTQVTVSS")
"low polyreactivity"
>>> measured_value("QVQLVESGGGLVQAGGSLRLSCAASGRIFPRNTMGWYRQAPGKEREMVAAISTRGGSTYYADSVKGRFTISRDNAQNTVYLEMNSLKPEDTAVDYSAAGRRFPAIYSTGNYWGQGTQVTVSS")
"high polyreactivity"
>>> measured_value("QVQLVESGGGLVQAGGSLRLSCAASGSTFGGYAMGWYRQEPGKERELVAAISSRGARTYYADSVKGRFTISRDNAKKTVYLQMNSLKPEDTAVYYCAARGPLDRYGYWGQGTQVTVSS")
"high polyreactivity"
>>> measured_value("QVQLVESGGCLVQAGGSLRLSCAASGSTFRFYAMGWYRQAPGKERELVATISSSGGTTYYADSVKGRFTISRDNAKNTVYLQMNSLKPEDTAVSYCAKDAFGWGRVYYYRSGYWGHGTQVTVSS")
"high polyreactivity"

Next up:
Kindly note the recorded polyreactivity (PSR sort gate) for QVQLEESGGGLVQAGGSLRLSCAASGRTFGRYDMGWYRQAPGKEREFVAAISTRGSRTYYADSVKGRFTISRDNAKNTVYLQMNSLKAEDTAVYYCAAEYLPRPYSWIYYYWGQGTQVTVSS , which is high polyreactivity

* * *

assay: yeast display, Sf9 membrane polyspecificity reagent, FACS + sequencing; frameworks hold sequencing errors
Experimental readout: polyreactivity (PSR sort gate)

>>> measured_value("QVQHVESGGGLVQAGGSLRLSCAASGSTFDDNVMGWYRQAPGKERELVAAISSSGGSTYYADSVKGRFTISRDNAKNTVYLQMNSLKPEDTAVYYCNAVYFGLWGYYARRSYNYWGQGTQVTASS")
"low polyreactivity"
>>> measured_value("QVQLVDSGGGLVQAGGSLRLSCAASGSILFEYMGWYRQAPGKERELVAAITIRDGGTYYADSVKGRFTISRDNAKNTVYLQMNSLKPEDTAVYYCNADFSGGWRYDYWGQGTQVTVSS")
"low polyreactivity"

* * *

assay: yeast display, Sf9 membrane polyspecificity reagent, FACS + sequencing; frameworks hold sequencing errors
Experimental readout: polyreactivity (PSR sort gate)

>>> measured_value("QVQLVESGGGLVQAGGSLRLSCAASGRIFYPYAMGWYRQAPGKERELVAAIRISGGSTYYADSVKGRFTISRDNAKNTVYLQMISLNPEDTAVYYCNASARLQPAYSWFYYWGQGTQVTVSS")
"high polyreactivity"
>>> measured_value("QVQLVESGGGLVQAGGSLRLSCAASGRIFRVNAMGRYRQAPGKERELVAAITRSGGSTYYADSVKGRFTISRDNAKNTVYLQRNSLKPEDTAVYYCNADPRLRQTRDYWGQGTQVTVSS")
"high polyreactivity"

* * *

experiment: yeast display, Sf9 membrane polyspecificity reagent, FACS + sequencing; frameworks hold sequencing errors
Experimental readout: polyreactivity (PSR sort gate)

>>> measured_value("QVQLVESGGGLVQAGGSLRLSCAASGIIFNSYAMGWYRQAPGKERELVATISGSGGSTYYADSVKGRFTISRDNAKNTVYFQMNSLKPEDTAVYSCAARTGRYYRRYDYWGQGTQVTVSS")
"high polyreactivity"
>>> measured_value("QVQLVESGGGLVQAGGSLRLSCAASGSTFAGFTMRWYRQAPGKERELVAAITTRGGRTYYADSVKGRFTISRDNAKNTVYLQMNSLKPEDTAVYYCAAVSRYYAELMYYWGQGTQVTVSS")
"high polyreactivity"
>>> measured_value("QVQLVESGGGLVQAGGSLRLSCAASGRTFKLNAMGWYRQAPGKERELVAGITRTGDSTYYADSVKGRFTISRDNAKNTVYLQMNSLKPEDTAVYYCAKDGPWKFIYDYWGQGTQVTVSS")
"low polyreactivity"
>>> measured_value("QVQLVESGGGLVQAGGSLRLSCAASGSTFLTNDMGWYRQAHGKERELVAVITDGDTTYADSVKGRFTISRDNAKNTVYLQMNSLKPEDTAVYYCAADENYWSAGYDYWGQGTQVTVSS")
"low polyreactivity"

Now look at this one.
QVQLVESGGGLVQAGGSLRLSCAASGGILDTYAMGWYRQAPGKERELVAAITSGGNTNYADSVKGRFTISRDNAKNTVYLQMNSLKPEDTAVYYCNVVTWYYVFRPWEYDYWGQGSQVTVSS yielded polyreactivity (PSR sort gate) of low polyreactivity

* * *

experiment: yeast display, Sf9 membrane polyspecificity reagent, FACS + sequencing; frameworks hold sequencing errors
Experimental readout: polyreactivity (PSR sort gate)

>>> measured_value("QVQLVESGGGLVQAGGSLRLSCAASGSTFFGYVMGWDRQAPGKERELVAAIRSSGGSTYYADSVKGRFTISRDNAKNTVYLQINSLKPEDTAVYYCAASYRYDAYSHYDYWGQGTQVTVSS")
"low polyreactivity"
>>> measured_value("QVQLVESGGGLVQAGGSLRLSCAASGSIFRPNALGWYRQAPGKERELVAAITWSGDSTYYADSVKGRFTISRDNAKNTVYLQINSLKPEDTAVYYCAVVSYKVTESGIRMYYWGQGTQVTVSS")
"low polyreactivity"
>>> measured_value("QVQLVESGGGLVQAGGSLRLSCAASGSIFIYYTMGWYRQAPGKERELVAAISWRGGRTYYADSVKGRFTISRDNAKNTVYLQMNSLKPEDTAVYYCNAQPSVYYGRWGLNYGYWGQGTQVTVSS")
"high polyreactivity"
>>> measured_value("QVQLVESGGGLVQAGGSLRLSCAASGFTFYGYAMGWYRQAPGKERELVAAISSSGGRTYYADSVKGRFTISRDNEKNTVYLQMNSLKPEDTAVYYCAAEYRSYRDGYWGLGTQVTVSS")
"high polyreactivity"
>>> measured_value("QVQLVESGGGLVQAGGSLRLSCAASGSTFASYVMGGYSQAPGKERELVAGIDVRGVSTYYADSVKGRFTISRDNAKNTVYLQMNSLKPEDTAVYYCAIDNRYEMDYWGQGTQVTVSS")
"low polyreactivity"
>>> measured_value("QVQLVESGGGLVQAGGSLRLSCAASGSIIRWYTMAWYRQAPGKESEFVAAITRSGGSTYYADSVKVRFTISRDNAKNTVYLQMNSLKPEDTAVYYCARYANYDKRYDYWGQGTQVTVSS")
"high polyreactivity"
>>> measured_value("QVQLVESGGGLVQAGGSLRLSCAASGRTFGVNAMGWYRQAPRKERELVAAINRGGSTYYADSVKGRFTISRDNAKNTVYLQMISLNPEDTAVYYCAAYVSAVHGISGYWGQGTQVTVSS")
"low polyreactivity"
>>> measured_value("QVQLVESGGGLVQAGGSLRLSCAASGSTIGYNAMGWYRQAPGKERELVAAISGSGTDTRYADSVKGRFTISRDNAKNTFYLQMNSRNPEDTAVYYCAVSVVYRGSKRVRQNPMEYWGQGTQVTVSS")
"high polyreactivity"
>>> measured_value("QVQLVESGGGLVQAGGSLRLSCAASGRTFVYYTRGWYRPAPGKERELVAAISWNGDDTYYADSVKGRFTISRDNAKNTVYLQMNSLKPEDTAVYYCAKESYTDYDTYYYWGQGTQVTVSS")
"low polyreactivity"
>>> measured_value("QVQLVESGGGLVQAGGSLRLSCAASGYIFVYYAMGWYRQAPGKEREMVAAISSSGDTTYYADSVKGRFTISRDNAKNTVYLQMNSLKPEDTAVYYCAARVRGYSHASNYYWGQGTQVTVSS")
"high polyreactivity"

For the next question, use this sequence.
Record QVQLVESGGGLVQAGGSLRLSCAASGITFVFYTMGWYRQAPGKERELVAAISRSGASTYYADSVKGRFTISRDNAKNTVYLQMNSLKPEDTAVYYCAADRGYRFRMDYWGQGTQVTVSS , field polyreactivity (PSR sort gate): high polyreactivity
